# System: 786-0
# experimental details: NCI tumour cell line growth inhibition, 48 h
Activity calls are given as the source filed them. No stated cut-off is given here; in the data, active = GI50 up to about 1.1 µM and inactive = higher.
# GI50 annotations
observed property: GI50

> print(dat)
                                    compound  observed.property             measured
 1  CC/C=C/C(CC)C/C(C)=C\[C@]1(CC)C[C@H](CC)[C@H](CC(=O)O)OO1 (stereo not given in full)               GI50   1.31 µM (inactive)
 2  CC12CCC([C@H](Nc3cc(C(F)(F)F)cc(C(F)(F)F)c3)C1=O)C2(C)C (stereo not given in full)               GI50  > 100 µM (inactive)
 3  CC(=O)Nc1ccc(C(=O)NN2C(=O)C(Cl)C2c2ccc([N+](=O)[O-])cc2)cc1 (stereo not given)               GI50  > 100 µM (inactive)
 4  CC(C)N(C(=O)C12C3C4C1C1C4(C#N)C3C12C(=O)O)C(C)C (stereo not given)               GI50  > 100 µM (inactive)
 5  O=C1CN(C(=O)C2CCCN2C(=O)C2CCCN2)C(=O)CN1 (stereo not given)               GI50  > 100 µM (inactive)
 6  O=C(C#Cc1ccccc1)Nc1ccccc1CC(c1c[nH]c2ccccc12)c1c[nH]c2ccccc12               GI50   9.53 µM (inactive)
 7  Cc1ccc2nc(NC(=O)C(=O)CC(=O)c3cccc4ccccc34)sc2c1               GI50   20.2 µM (inactive)
 8  COc1ccc(/C(Cl)=C(\C=O)c2ccc(Br)cc2)cc1OC               GI50   27.7 µM (inactive)
 9       CCOC(=O)C1=C(O)C(=O)c2cc(C)ccc2C1=O               GI50  > 100 µM (inactive)
10  CCOC(=O)c1c2c(n(-c3ccc(OC)cc3)c1C)C(=O)C(=O)c1ccccc1-2               GI50   1.87 µM (inactive)

Where do the numbers come from? From ChEMBL document CHEMBL1201862.
